# assay system: ABCC4 (Homo sapiens)
# assay procedure: biochemical
# Assay type: biochemical
# protocol conditions: 28°C; cAMP-efflux, inside-out vesicles; read-out: ABCC4 Ki
measure: pKi
pKi is a log-scale quantity: -log10 of the concentration expressed in molar.

Asked: Request the reported pKi associated with Nc1cc(-c2ccncc2)c[nH]c1=O [Amrinone]
Given back: 5.29

* * *

# assay system: ABCC4 (Homo sapiens, UniProt O15439)
# Sequence (O15439 whole entry): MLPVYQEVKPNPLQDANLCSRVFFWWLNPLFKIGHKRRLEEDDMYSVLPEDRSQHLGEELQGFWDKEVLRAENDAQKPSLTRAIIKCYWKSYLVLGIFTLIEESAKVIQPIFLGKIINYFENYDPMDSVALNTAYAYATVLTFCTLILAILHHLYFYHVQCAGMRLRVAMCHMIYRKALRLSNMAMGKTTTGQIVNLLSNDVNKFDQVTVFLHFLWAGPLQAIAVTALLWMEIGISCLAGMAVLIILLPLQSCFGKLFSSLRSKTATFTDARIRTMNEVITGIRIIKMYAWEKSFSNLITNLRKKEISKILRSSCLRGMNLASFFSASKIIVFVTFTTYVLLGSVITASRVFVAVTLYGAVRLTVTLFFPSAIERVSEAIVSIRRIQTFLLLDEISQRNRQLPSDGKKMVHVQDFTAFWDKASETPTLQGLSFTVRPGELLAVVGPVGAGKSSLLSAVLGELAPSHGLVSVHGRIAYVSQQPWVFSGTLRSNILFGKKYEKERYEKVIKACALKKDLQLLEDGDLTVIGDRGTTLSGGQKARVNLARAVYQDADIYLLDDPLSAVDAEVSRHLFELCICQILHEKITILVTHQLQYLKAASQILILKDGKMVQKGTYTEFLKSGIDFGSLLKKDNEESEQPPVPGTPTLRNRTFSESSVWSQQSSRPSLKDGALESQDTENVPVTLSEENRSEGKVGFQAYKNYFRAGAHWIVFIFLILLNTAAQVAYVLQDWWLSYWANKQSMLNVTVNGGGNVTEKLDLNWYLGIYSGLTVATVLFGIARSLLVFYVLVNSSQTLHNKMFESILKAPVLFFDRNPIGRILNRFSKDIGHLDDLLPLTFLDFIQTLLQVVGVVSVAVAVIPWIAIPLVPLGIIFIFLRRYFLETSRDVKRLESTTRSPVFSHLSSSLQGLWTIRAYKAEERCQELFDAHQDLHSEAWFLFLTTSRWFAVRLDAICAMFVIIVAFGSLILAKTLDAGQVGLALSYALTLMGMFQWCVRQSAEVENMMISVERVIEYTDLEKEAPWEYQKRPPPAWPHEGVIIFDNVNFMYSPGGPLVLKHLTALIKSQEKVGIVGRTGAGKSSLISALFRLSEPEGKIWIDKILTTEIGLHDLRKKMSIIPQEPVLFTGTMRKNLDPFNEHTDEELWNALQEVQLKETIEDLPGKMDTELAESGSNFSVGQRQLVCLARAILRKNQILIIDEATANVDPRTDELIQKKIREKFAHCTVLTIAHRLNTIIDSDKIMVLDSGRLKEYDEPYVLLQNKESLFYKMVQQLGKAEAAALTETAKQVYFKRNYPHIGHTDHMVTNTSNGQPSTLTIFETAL
# assay procedure: biochemical
# Type: biochemical
# protocol conditions: 34°C; Table 3; read-out: ABCC5 IC50 (Table 3)
measure: pIC50
pIC50 is a log-scale quantity: -log10 of the concentration expressed in molar.

Asked: Request the reported pIC50 associated with C[C@@H]1CC(=O)NN=C1c1ccc(NN=C(C#N)C#N)cc1 [Levosimendan]
Given back: 4.90
